Listed molecules paired with reported activity change, negative = inhibition
experiment: HIV-1 AD8 envelope cell-cell fusion blockers – cherry-pick, dose response (AID 652062); settings: HeLa-AD8 Env / CEM-CCR5 cell fusion, luciferase; at 35 µM (top of the series) unless noted
In all, about 1,400 compounds went through this assay and about 1,100 (79%) were called active. The set was probably picked from earlier hits. Only a sample is shown. Measured potencies and affinities stand elsewhere.

| structure string | activity change, negative = inhibition |
| --- | --- |
| CCOC(=O)[C@]12CCC=C1N(Cc1ccc3c(c1)OCO3)C(=O)[C@H](CC(=O)NCC13CC4CC(CC(C4)C1)C3)C2 | 17.3% [at 16 µM] |
| O=C(C[C@H]1C[C@H]2c3cc(NC(=O)C4CCC4)ccc3O[C@H]2[C@@H](CO)O1)NCc1ccc2c(c1)OCO2 | 38.8% [at 30 µM] |
| O=C(C[C@@H]1C[C@@H]2c3cc(NC(=O)c4ccc5c(c4)OCO5)ccc3O[C@@H]2[C@@H](CO)O1)NCc1ccc(Oc2ccccc2)cc1 | 0.613% [at 16 µM] |

----------
test: HIV-1 AD8 envelope cell-cell fusion blockers – cherry-pick, dose response (AID 652062); conditions: HeLa-AD8 Env / CEM-CCR5 cell fusion, luciferase; at 35 µM (top of the series) unless noted
Among all 1,400 compounds or so, about 1,100 (79%) were called active. So high a share suggests a set chosen from earlier hits. A selection follows. Entries with a potency or affinity are not part of this list.
Some molecules, each annotated with its measured activity change, negative = inhibition.
measured parameter: activity change, negative = inhibition (%)

| molecule | reported result |
| --- | --- |
| C[C@H]1CN([C@@H](C)CO)C(=O)c2cccc(NC(=O)Nc3ccc(C(F)(F)F)cc3)c2O[C@H]1CN(C)S(=O)(=O)c1ccccc1 | -14.4 |
| CCN(CC)S(=O)(=O)c1ccc(NC(=O)Nc2cccc(C(F)(F)F)c2)cc1 | -121 |
| O=C(CC1C(=O)NCCN1Cc1cccc(F)c1)NC1CCCCC1 (centres undefined) | 73.6 |
| Nc1nc2c(ncn2[C@@H]2O[C@H](C(=O)NCC(c3ccccc3)c3ccccc3)[C@@H](O)[C@H]2O)c(=O)[nH]1 | 19.5 |
| CCCNC(=O)C[C@@H]1C[C@@H]2c3cc(NC(=O)CN(C)C)ccc3O[C@@H]2[C@H](CO)O1 | 48.2 |
| COc1ccc2[nH]c3c(N4CCC(O)(c5cccc(C(F)(F)F)c5)CC4)ncnc3c2c1 | -33.8 |
| O=C(O)C[C@@H]1C=C[C@H](NC(=O)Nc2ccccc2)[C@H](CO)O1 | -16.5 |
| O=C(O)C[C@@H]1CC[C@@H](NC(=O)c2ccncc2)[C@H](CO)O1 | 28.7 |
| Nc1ccc(S(=O)(=O)c2ccc(N3CCOCC3)c(N)c2)cc1 | -17.7 |
| CCCNC(=O)C[C@@H]1C[C@@H]2c3cc(NC(=O)Cc4ccncc4)ccc3O[C@@H]2[C@H](CO)O1 | -27.5 |
| CCN(CCn1cccn1)C(=O)CC1C(=O)NCCN1CCc1ccccc1 (centres undefined) | 27.6 |
| CCCNC(=O)C[C@@H]1C[C@H]2c3cc(NC(=O)c4cccnc4)ccc3O[C@H]2[C@H](CO)O1 | 6.61 |
| CCNC(=O)C[C@@H]1CC[C@@H]2[C@H](COC[C@@H](O)CN2C(=O)c2ccccn2)O1 | 66.2 |

----------
experiment: HIV-1 AD8 envelope cell-cell fusion blockers – cherry-pick, dose response (AID 652062); conditions: HeLa-AD8 Env / CEM-CCR5 cell fusion, luciferase; at 35 µM (top of the series) unless noted
In all, about 1,400 compounds went through this assay and about 1,100 (79%) were called active. The set was probably picked from earlier hits. A selection follows. Entries with a potency or affinity are not part of this list.
activity change, negative = inhibition of -10% or higher: True. Under -10%: False.

| compound | qualitative label |
| --- | --- |
| COc1cccc(S(=O)(=O)N[C@@H]2CC[C@H](CCN)O[C@H]2CO)c1 | True |
| C[C@@H]1CN([C@H](C)CO)C(=O)c2cccc(NC(=O)c3cnccn3)c2O[C@H]1CN(C)Cc1ccccc1 | True |
| CC(C)CN(C(=O)c1ccc(S(=O)(=O)N2CCCCC2)cc1)C1CCS(=O)(=O)C1 (stereo not drawn) | False |
| COc1ccccc1CN1C(=O)CN(C2CCCCCC2)C(=O)C1c1ccc(F)cc1 (stereo not drawn) | True |
| CO[C@H]1CN(C)C(=O)c2cc(NC(=O)c3ccc(F)cc3)ccc2OC[C@H](C)N(C(=O)CN(C)C)C[C@@H]1C | True |
| COc1cccc(/C=N/NC(=O)CC2C(=O)NN=C2C)c1O (stereo not drawn) | False |
| COc1cc(OC)cc(C(=O)N[C@H](C(=O)NCCc2c[nH]c3ccccc23)C(C)C)c1 | False |
| COc1ccccc1C(=O)Nc1ccc2c(c1)OC[C@H](C)N(C(C)=O)C[C@H](C)[C@H](OC)CN(C)C2=O | False |
| CCS(=O)(=O)N[C@H]1CC[C@@H](CC(=O)NCc2ccc(Cl)cc2)O[C@@H]1CO | True |
| CCCCNC(=O)C[C@H]1C[C@@]2(C(=O)OC)C(=C[C@H](C(C)(C)C)O[C@@H]2C)N(Cc2ccc3c(c2)OCO3)C1=O | True |
| CO[C@H]1CN(C)C(=O)c2cc(NC(C)=O)ccc2OC[C@@H](C)N(Cc2nccs2)C[C@H]1C | True |
| C[C@H]1CN([C@@H](C)CO)C(=O)c2cccc(NC(=O)c3ccncc3)c2O[C@@H]1CN(C)C(=O)Nc1cccc2ccccc12 | True |
| O=C(Nc1cccc(F)c1)N[C@H]1CC[C@@H](CCNS(=O)(=O)c2cccc(Cl)c2)O[C@H]1CO | True |
| COc1ccc(CCNC(=O)COC(=O)c2cccn2C)cc1 | False |
| CNC[C@@H]1Oc2c(N)cccc2C(=O)N([C@@H](C)CO)C[C@@H]1C | True |
| CNC[C@H]1Oc2c(NC(=O)Nc3ccc(C(F)(F)F)cc3)cccc2C(=O)N([C@@H](C)CO)C[C@H]1C | True |
| CC1(C(=O)NCc2ccc3c(c2)OCO3)CCN1Cc1csc2ccccc12 (stereo not drawn) | False |
| CO[C@@H]1CN(C)C(=O)c2cc(NC(=O)Nc3ccc(Cl)cc3)ccc2OC[C@H](C)N(C)C[C@H]1C | False |
| C[C@H]1CN([C@@H](C)CO)C(=O)Cc2cc(NS(=O)(=O)c3ccccc3)ccc2O[C@@H]1CN(C)Cc1ccc(Cl)c(Cl)c1 | False |
| O=C(Nc1cccc(F)c1)c1cc(S(=O)(=O)N2CCC(C(=O)O)CC2)ccc1F | True |
| Cc1ccc(-n2ncc3c(N4CCN(c5ccccc5)CC4)ncnc32)c(C)c1 | False |
| Cc1ccc(C2CC(=O)c3cnc(N4CCc5ccccc5C4)nc3C2)cc1 (stereo not drawn) | True |
| Cc1ccc(Cn2ncc3c(N4CCN(c5ccc(C)cc5)CC4)ncnc32)cc1 | False |
| COc1cccc(S(=O)(=O)N[C@H]2CC[C@@H](CCN)O[C@@H]2CO)c1 | True |
| COc1ccc(Nc2cc(C)nc(NCc3ccccc3)n2)cc1 | False |
| COc1cccc(CNC(=O)C[C@@H]2C=C[C@H](NC(=O)C3CCC3)[C@H](CO)O2)c1 | True |

----------
Listed molecules paired with reported activity change, negative = inhibition
experiment: HIV-1 AD8 envelope cell-cell fusion blockers – cherry-pick, dose response (AID 652062); conditions: HeLa-AD8 Env / CEM-CCR5 cell fusion, luciferase; at 35 µM (top of the series) unless noted
In all, about 1,400 compounds went through this assay and about 1,100 (79%) were called active. So high a share suggests a set chosen from earlier hits. The list is a sample of the results. Results with a measured potency or affinity are listed apart.

| structure string | unit info | activity change, negative = inhibition |
| --- | --- | --- |
| CC(C)C#Cc1ccc2c(c1)O[C@@H](CN(C)C(=O)C1CCCCC1)[C@H](C)CN([C@H](C)CO)S2(=O)=O | % [at 16 µM] | 41.8 |
| Cc1ccc(S(=O)(=O)Nc2ccc3c(c2)C(=O)N([C@H](C)CO)C[C@@H](C)[C@H](CN(C)S(=O)(=O)c2ccc(F)cc2)O3)cc1 | % [at 16 µM] | -22.9 |
| CCCC#Cc1ccc2c(c1)O[C@@H](CN(C)C(=O)C1CCCCC1)[C@H](C)CN([C@H](C)CO)S2(=O)=O | % [at 16 µM] | 90.1 |
